# System: HCT-116
# Protocol Notes: NCI tumour cell line growth inhibition, 48 h
The source made the active and inactive calls. Rule as the data show it: active = GI50 up to about 1.1 µM and inactive = higher.
Measured Endpoint: GI50

Some molecules with known GI50 results, for comparison:
O=C(Cc1ccccc1)N/N=C(/c1nc2ccc([N+](=O)[O-])cc2nc1O)C(O)c1ccccc1Cl (stereo not given)    > 100 µM (inactive)
Cc1c(Cl)cccc1N1C(=O)C(Cl)=C(Cl)C1=O    > 100 µM (inactive)
O=c1c2ccccc2nc(-c2cccc(Cl)c2)n1NCC1(O)OCC(O)C(O)C1O (stereo not given)    > 100 µM (inactive)
COc1ccc(/C=N\N2CC(=O)N3C4C=CC(CC4)N3C2=O)cc1 (stereo not given)    > 100 µM (inactive)
Cc1nc2cc3ccccc3cc2[nH]c1=O    > 100 µM (inactive)

### Prompt Sample C[C@]12CCC(N3CCCC3)CC1=CC[C@@H]1[C@@H]2CC[C@]2(C)C(O)[C@H](n3ccnc3)C[C@@H]12 (stereo not given in full) — what was its GI50?
### Response 38.1 µM (inactive)

### Prompt Sample N#Cc1ccc(Oc2cccc(Oc3ccccc3)c2)cc1C#N — what was its GI50?
### Response 44.3 µM (inactive)

### Prompt Sample Cc1c(C(=O)C/C(=N/NC(=O)c2ccccc2O)C(=O)Nc2ccccc2C(C)C)[n+]([O-])c2ccccc2[n+]1[O-] — what was its GI50?
### Response 27.7 µM (inactive)

### Prompt Sample C=C1C(=O)O[C@H]2C/C(C)=C/CC[C@]3(C)CCC[C@](C)(CC[C@@H]12)O3 — what was its GI50?
### Response 8.69 µM (inactive)

### Prompt Sample CC(C)(C)OC(=O)N/C=C1\C(=O)Oc2ccccc2C1=O — what was its GI50?
### Response 36 µM (inactive)

* * *

# Tested on: RXF 393
# Protocol Notes: NCI tumour cell line growth inhibition, 48 h
The source made the active and inactive calls. Cut-off read from the data, not from the text of the source: active = GI50 up to about 1.1 µM and inactive = higher.
Entries and their measured GI50 follow.

Some molecules with known GI50 results, for comparison:
CC1=CC(=O)CC2(C)CCC(C(C)CC(=O)CC(C)C)CC12 (stereo not given)    23.6 µM (inactive)
COc1cc(C=O)c(-c2cc3c(cc2C=O)OCO3)c(OC)c1OC    63.5 µM (inactive)
Cn1c(-c2ccccc2)cc(-c2ccc3c(c2)OCO3)c1-c1cccs1    > 100 µM (inactive)
N#Cc1cc([N+](=O)[O-])ccc1NC(=O)/C(=N\NC(=O)c1ccncc1)C(c1cnc2ccc([N+](=O)[O-])cc2n1)[N+](=O)[O-] (stereo not given)    4.44 µM (inactive)
O=C1CCC(N2C(=O)c3ccccc3C2=O)C(=O)N1 (stereo not given) [THALIDOMIDE]    > 100 µM (inactive)
Cc1ccc(CCCC(=O)O)cc1C    > 100 µM (inactive)

### Prompt Form field: GI50 recorded for Cc1c2ccnc(O)c2cc2c(=O)c3cnccc3[nH]c12 with RXF 393 (enter value)
### Response > 100 µM (inactive)

### Prompt Form field: GI50 recorded for COC(=O)C1CC2CCC1(O[Si](C(C)C)(C(C)C)C(C)C)C(O)C2 (stereo not given) with RXF 393 (enter value)
### Response 15 µM (inactive)

### Prompt Form field: GI50 recorded for COc1ccc2[nH]c3c(c2c1)CC(=O)N1CCC[C@H](C1)CC31OCCCO1 with RXF 393 (enter value)
### Response 44.5 µM (inactive)

### Prompt Form field: GI50 recorded for Cn1c(=O)c(Cl)c(N=[N+]=[N-])c2ccccc21 with RXF 393 (enter value)
### Response 69.2 µM (inactive)

The origin of these recorded values is ChEMBL document CHEMBL1201862.
